EXPERIMENT_SUMMARY: Plasma protein binding in human plasma at 750 mg administered as single dose
Type: ADME, organism-based
ASSAY_SETUP: read-out: PPB (converted)
MEASUREMENT_TYPE: fraction unbound
Respond numerically, and do not add a unit to the figure.

Specify reported fraction unbound for the compound shown: CCCCCCCCCCNCCN[C@@]1(C)C[C@H](O[C@H]2[C@H](Oc3c4cc5cc3Oc3ccc(cc3Cl)[C@@H](O)[C@@H](NC(=O)[C@@H](CC(C)C)NC)C(=O)N[C@@H](CC(N)=O)C(=O)N[C@H]5C(=O)N[C@H]3C(=O)N[C@H](C(=O)N[C@H](C(=O)O)c5cc(O)c(CNCP(=O)(O)O)c(O)c5-c5cc3ccc5O)[C@H](O)c3ccc(c(Cl)c3)O4)O[C@H](CO)[C@@H](O)[C@@H]2O)O[C@@H](C)[C@H]1O
0.1

* * *

EXPERIMENT_SUMMARY: AUC (0 to infinity) in human epithelial lining fluid at 750 mg administered as single dose
Format: ADME, tissue-based
Design: dose 750 mg, time infinity
MEASUREMENT_TYPE: AUC(0-inf) (ng·h/mL)
Report as a plain number; the unit ng·h/mL is understood.

Specify reported AUC(0-inf) for the compound shown: CCCCCCCCCCNCCN[C@@]1(C)C[C@H](O[C@H]2[C@H](Oc3c4cc5cc3Oc3ccc(cc3Cl)[C@@H](O)[C@@H](NC(=O)[C@@H](CC(C)C)NC)C(=O)N[C@@H](CC(N)=O)C(=O)N[C@H]5C(=O)N[C@H]3C(=O)N[C@H](C(=O)N[C@H](C(=O)O)c5cc(O)c(CNCP(=O)(O)O)c(O)c5-c5cc3ccc5O)[C@H](O)c3ccc(c(Cl)c3)O4)O[C@H](CO)[C@@H](O)[C@@H]2O)O[C@@H](C)[C@H]1O [TELAVANCIN]
74800
